Tested on: LYPLA2
Assay: LYPLA1/LYPLA2 inhibition with serine hydrolase anti-target selectivity, late-stage follow-up, selectivity assay for LYPLA1/LYPLA2 inhibitor project, cell lysate, mouse brain membrane proteome, FP-Rh fluorescence, powders (AID 743117)
Settings: gel-based ABPP FP-Rh fluorescence, at 100 µM (top of the series)
readout-label: inhibition (%)

Reference set (2 entries):
{"compound": "O=C(ON1C(=O)C2CN(C(=O)N3CCOCC3)CCN2C1=O)N1CCC(CCc2ccc(Cl)cc2)CC1 (centres undefined)", "assay-target": "LYPLA2", "inhibition [%]": 100}
{"compound": "CCN(C(=O)C1CCN(C(=O)ON2C(=O)C3CN(C(=O)OC(C)(C)C)CCN3C2=O)CC1)c1ccccc1 (centres undefined)", "assay-target": "LYPLA2", "inhibition [%]": 100}

(I) O=C(ON1C(=O)C2CN(CCc3ccccc3)CCN2C1=O)N1CCC(CCc2ccc(Cl)cc2)CC1 (centres undefined)
(II) CC(C)(C)OC(=O)N1CCN2C(=O)N(OC(=O)N3CCOCC3Cc3ccccc3)C(=O)C2C1 (centres undefined)
// pick min by inhibition: I , II Bench note: the answer is the label of the chosen record.
II
(II: 0%, I: 100%)

* * *

Target: ABHD4 Selectivity (UniProt Q8VD66)
Sequence (Q8VD66 whole entry, looked up): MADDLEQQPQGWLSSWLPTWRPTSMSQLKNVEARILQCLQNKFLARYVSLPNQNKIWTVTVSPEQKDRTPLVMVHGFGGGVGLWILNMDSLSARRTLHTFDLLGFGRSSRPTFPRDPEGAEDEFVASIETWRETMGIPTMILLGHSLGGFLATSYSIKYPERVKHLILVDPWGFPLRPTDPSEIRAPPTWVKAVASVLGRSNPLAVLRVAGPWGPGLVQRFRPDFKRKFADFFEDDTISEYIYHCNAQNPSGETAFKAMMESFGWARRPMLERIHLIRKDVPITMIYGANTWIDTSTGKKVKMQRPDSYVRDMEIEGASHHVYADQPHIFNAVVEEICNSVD
Test: LYPLA1/LYPLA2 inhibition with serine hydrolase anti-target selectivity, late-stage follow-up, selectivity assay for LYPLA1/LYPLA2 inhibitor project, cell lysate, mouse brain membrane proteome, FP-Rh fluorescence, powders (AID 743117)
Conditions: gel-based ABPP FP-Rh fluorescence, measured here: ABHD4 Selectivity, anti-target concentration >50% inhibition, stronger effect = lower value
readout-label: concentration for >50% inhibition (µM)

Reference set (2 entries):
{"compound": "O=C(ON1C(=O)C2CN(C(=O)c3ccc(Br)cc3)CCN2C1=O)N1CCC(CCc2ccc(Cl)cc2)CC1 (stereo unspecified)", "concentration for >50% inhibition / µM": 100}
{"compound": "O=C(ON1C(=O)C2CN(C(=O)N3CCCCC3)CCN2C1=O)N1CCC(CCc2ccc(Cl)cc2)CC1 (stereo unspecified)", "concentration for >50% inhibition / µM": 10}

(P) O=C(ON1C(=O)C2CN(CCc3ccccc3)CCN2C1=O)N1CCC(CCc2ccc(Cl)cc2)CC1 (stereo unspecified)
(Q) CC(C)(C)CC(=O)N1CCN2C(=O)N(OC(=O)N3CCC(CCc4ccc(Cl)cc4)CC3)C(=O)C2C1 (stereo unspecified)
(R) O=C(ON1C(=O)C2CN(Cc3ccc(Br)cc3)CCN2C1=O)N1CCC(CCc2ccc(Cl)cc2)CC1 (stereo unspecified)
Could you please order the items by concentration for >50% inhibition, going from the lowest number to the highest? // format: requested-order list of labels
R, P, Q
(R: 1 µM, P: 10 µM, Q: 100 µM)

* * *

System: LYPLA1
Experiment: LYPLA1/LYPLA2 inhibition with serine hydrolase anti-target selectivity, late-stage follow-up, selectivity assay for LYPLA1/LYPLA2 inhibitor project, cell lysate, mouse brain membrane proteome, FP-Rh fluorescence, powders (AID 743117)
Details: gel-based ABPP FP-Rh fluorescence, at 100 µM (top of the series)
readout-label: inhibition (%)

{"molecule": "CCN(C(=O)C1CCN(C(=O)ON2C(=O)C3CN(C(=O)OC(C)(C)C)CCN3C2=O)CC1)c1ccccc1 (stereo not drawn)", "assay-target": "LYPLA1", "inhibition, %": 100}

(a) O=C(ON1C(=O)C2CN(C(=O)N3CCCC3)CCN2C1=O)N1CCC(CCc2ccc(Cl)cc2)CC1 (stereo not drawn)
(b) COC(=O)C1CCN(C(=O)ON2C(=O)C3CN(C(=O)OC(C)(C)C)CCN3C2=O)CC1 (stereo not drawn)
Between a and b , which one shows the larger inhibition value? Bench note: the answer is the label of the chosen record.
a
(a: 100%, b: 25%)

* * *

Tested on: ABHD12 Selectivity
Test: LYPLA1/LYPLA2 inhibition with serine hydrolase anti-target selectivity, late-stage follow-up, selectivity assay for LYPLA1/LYPLA2 inhibitor project, cell lysate, mouse brain membrane proteome, FP-Rh fluorescence, powders (AID 743117)
Settings: gel-based ABPP FP-Rh fluorescence, measured here: ABHD12 Selectivity, anti-target concentration >50% inhibition, stronger effect = lower value
readout-label: concentration for >50% inhibition (µM)

{"molecule": "CN(C)c1ccc(C(=O)N2CCN3C(=O)N(OC(=O)N4CCC(CCc5ccc(Cl)cc5)CC4)C(=O)C3C2)cc1 (stereo not drawn)", "assay-target": "ABHD12 Selectivity", "unit-info": "µM", "concentration for >50% inhibition": 10}

(1) COc1ccc(C(=O)N2CCN3C(=O)N(OC(=O)N4CCC(CCc5ccc(Cl)cc5)CC4)C(=O)C3C2)cc1 (stereo not drawn)
(2) O=C(ON1C(=O)C2CN(C(=O)N3CCOCC3)CCN2C1=O)N1CCC(CCc2ccc(Cl)cc2)CC1 (stereo not drawn)
Between 1 and 2 , which one shows the larger concentration for >50% inhibition value? Bench note: the answer is the label of the chosen record.
2

(A) O=C(ON1C(=O)C2CN(C(=O)c3ccc(Br)cc3)CCN2C1=O)N1CCC(CCc2ccc(Cl)cc2)CC1 (stereo not drawn)
(B) O=C(ON1C(=O)C2CN(C(=O)N3CCCC3)CCN2C1=O)N1CCC(CCc2ccc(Cl)cc2)CC1 (stereo not drawn)
Between A and B , which one shows the larger concentration for >50% inhibition value? Bench note: the answer is the label of the chosen record.
B
(B: 100 µM, A: 10 µM)

* * *

System: FAAH Selectivity
Assay: LYPLA1/LYPLA2 inhibition with serine hydrolase anti-target selectivity, late-stage follow-up, selectivity assay for LYPLA1/LYPLA2 inhibitor project, cell lysate, mouse brain membrane proteome, FP-Rh fluorescence, powders (AID 743117)
Conditions: gel-based ABPP FP-Rh fluorescence, measured here: FAAH Selectivity, anti-target concentration >50% inhibition, stronger effect = lower value
readout-label: concentration for >50% inhibition (µM)

{"compound": "COc1ccc(C(=O)N2CCN3C(=O)N(OC(=O)N4CCC(CCc5ccc(Cl)cc5)CC4)C(=O)C3C2)cc1 (configuration not stated)", "measured": 10}
{"compound": "CC(C)(C)OC(=O)N1CCN2C(=O)N(OC(=O)N3CCC(C(=O)Nc4ccccc4)CC3)C(=O)C2C1 (configuration not stated)", "measured": 100}
{"compound": "Cc1ccc(C(=O)N2CCN3C(=O)N(OC(=O)N4CCC(CCc5ccc(Cl)cc5)CC4)C(=O)C3C2)cc1 (configuration not stated)", "measured": 10}
{"compound": "CC(C)(C)CC(=O)N1CCN2C(=O)N(OC(=O)N3CCC(CCc4ccc(Cl)cc4)CC3)C(=O)C2C1 (configuration not stated)", "measured": 1}
{"compound": "O=C(ON1C(=O)C2CN(C(=O)N3CCCCC3)CCN2C1=O)N1CCC(CCc2ccc(Cl)cc2)CC1 (configuration not stated)", "measured": 1}

(A) O=C(ON1C(=O)C2CN(Cc3ccc(Br)cc3)CCN2C1=O)N1CCC(CCc2ccc(Cl)cc2)CC1 (configuration not stated)
(B) O=C(ON1C(=O)C2CN(C(=O)N3CCOCC3)CCN2C1=O)N1CCC(CCc2ccc(Cl)cc2)CC1 (configuration not stated)
// pick min by concentration for >50% inhibition: A , B Bench note: the answer is the label of the chosen record.
A
(A: 1 µM, B: 10 µM)

* * *

System: LYPLA2
Test: LYPLA1/LYPLA2 inhibition with serine hydrolase anti-target selectivity, late-stage follow-up, selectivity assay for LYPLA1/LYPLA2 inhibitor project, cell lysate, mouse brain membrane proteome, FP-Rh fluorescence, powders (AID 743117)
Conditions: gel-based ABPP FP-Rh fluorescence, at 100 µM (top of the series)
readout-label: inhibition (%)

{"molecule": "O=C(ON1C(=O)C2CN(C(=O)N3CCCCC3)CCN2C1=O)N1CCC(CCc2ccc(Cl)cc2)CC1 (stereo not drawn)", "readout-label": "inhibition", "measured": 100}
{"molecule": "CC(C)(C)OC(=O)N1CCN2C(=O)N(OC(=O)N3CCCCC3)C(=O)C2C1 (stereo not drawn)", "readout-label": "inhibition", "measured": 25}

(1) O=C(Cc1ccccc1)N1CCN2C(=O)N(OC(=O)N3CCC(CCc4ccc(Cl)cc4)CC3)C(=O)C2C1 (stereo not drawn)
(2) CC(C)(C)OC(=O)N1CCN2C(=O)N(OC(=O)N3CCC(C(=O)Nc4ccccc4)CC3)C(=O)C2C1 (stereo not drawn)
Between 1 and 2 , which one shows the larger inhibition value? Bench note: the answer is the label of the chosen record.
1

(P) CC(C)(C)CC(=O)N1CCN2C(=O)N(OC(=O)N3CCC(CCc4ccc(Cl)cc4)CC3)C(=O)C2C1 (stereo not drawn)
(Q) COC(=O)C1CCN(C(=O)ON2C(=O)C3CN(C(=O)OC(C)(C)C)CCN3C2=O)CC1 (stereo not drawn)
Between P and Q , which one shows the larger inhibition value? Bench note: the answer is the label of the chosen record.
P
(P: 100%, Q: 25%)

Recorded values, source PubChem BioAssay AID743117.
